# System: Huh-7 cells containing HCV Con1 subgenomic replicon (GS4.1 cells)
# measurement_notes: HCV replicon assay (NS5A ELISA)
# Type: cell-based
# condition_info: Hepatitis C virus, Huh-7; GS4.1 cells, 72 hrs, NS5A ELISA; read-out: EC50
pEC50: −log10 of the molar value.
quantity_kind: pEC50

[[record]]
compound = "COC(=O)N[C@H](C(=O)N1CCCC1c1nc(-c2ccc(-c3c(C(=O)OC)[nH]c4c(-c5ccc(-c6cnc(C7CCCN7C(=O)[C@@H](NC(=O)OC)C(C)C)[nH]6)cc5)csc34)cc2)c[nH]1)C(C)C (stereo partly shown)"
quantity_kind = "pEC50"
value_observed = "> 9.00"

[[record]]
compound = "COC(=O)N[C@H](C(=O)N1CCCC1c1ncc(-c2csc3c(-c4ccc(-c5cnc(C6CCCN6C(=O)[C@@H](NC(=O)OC)C(C)C)[nH]5)cc4)csc23)[nH]1)c1ccccc1 (stereo partly shown)"
quantity_kind = "pEC50"
value_observed = "> 9.00"

[[record]]
compound = "COC(=O)N[C@H](C(=O)N1CCC[C@H]1C(=O)Nc1cn2cc(-c3cccc(NC(=O)[C@@H]4CCCN4C(=O)[C@H](NC(=O)OC)c4ccccc4)c3)sc2n1)C(C)C"
quantity_kind = "pEC50"
value_observed = "7.00 to 8.00"

[[record]]
compound = "COC(=O)N[C@@H](C(=O)N1CCCC1c1ncc(-c2cn3cc(-c4ccc(-c5cnc([C@@H]6CCCN6C(=O)[C@H](NC(=O)OC)c6ccccc6)[nH]5)cc4)nc3s2)[nH]1)c1ccccc1 (stereo partly shown)"
quantity_kind = "pEC50"
value_observed = "> 9.00"

[[record]]
compound = "CC(C)(C)OC(=O)N1CCCC1c1ncc(-c2ccc(-c3cn4ccsc4n3)cc2)[nH]1 (stereo not shown)"
quantity_kind = "pEC50"
value_observed = "< 7.00"

[[record]]
compound = "COC(=O)N[C@H](C(=O)N1CCC[C@H]1c1ncc(-c2ccc(-c3cn4cc(NC(=O)[C@@H]5CCCN5C(=O)[C@H](NC(=O)OC(C)(C)C)c5ccccc5)nc4s3)cc2)[nH]1)C(C)C"
quantity_kind = "pEC50"
value_observed = "> 9.00"

[[record]]
compound = "COC(=O)N[C@H](C(=O)N1CCCC1c1ncc(-c2ccc(-c3cc4sc(Br)cc4s3)cc2)[nH]1)C(C)C (stereo partly shown)"
quantity_kind = "pEC50"
value_observed = "7.00 to 8.00"

[[record]]
compound = "COC(=O)N[C@H](C(=O)N1CCCC1c1ncc(-c2ccc(-c3csc4c(-c5cnc(C6CCCN6C(=O)[C@H](NC(=O)OC)C(C)C)[nH]5)csc34)cc2)[nH]1)C(C)C (stereo partly shown)"
quantity_kind = "pEC50"
value_observed = "> 9.00"

[[record]]
compound = "COC(=O)N[C@H](C(=O)N1CCCC1c1ncc(-c2ccc(-c3csc4cc(C(=O)OC)[nH]c34)cc2)[nH]1)C(C)C (stereo partly shown)"
quantity_kind = "pEC50"
value_observed = "7.00 to 8.00"

[[record]]
compound = "COC(=O)N[C@H](C(=O)N1CCC[C@H]1c1nc(-c2ccc(-c3csc4c(Br)csc34)cc2)c[nH]1)C(C)C"
quantity_kind = "pEC50"
value_observed = "7.00 to 8.00"

[[record]]
compound = "CC(C)(C)OC(=O)N1CCCC1c1ncc(-c2cn3cc(-c4ccc(Cl)cc4)sc3n2)[nH]1 (stereo not shown)"
quantity_kind = "pEC50"
value_observed = "< 7.00"

[[record]]
compound = "COC(=O)N[C@H](C(=O)N1CCC[C@H]1c1ncc(-c2ccc(-c3csc4c(-c5cnc([C@@H]6CCCN6C(=O)[C@@H](NC(=O)OC)C(C)C)[nH]5)csc34)cc2)[nH]1)C(C)C"
quantity_kind = "pEC50"
value_observed = "> 9.00"

[[record]]
compound = "COC(=O)N[C@H](C(=O)N1CCC[C@H]1c1ncc(-c2ccc(-c3csc4c(-c5cnc([C@@H]6CCCN6C(=O)[C@H](NC(=O)OC(C)(C)C)c6ccccc6)[nH]5)csc34)cc2)[nH]1)C(C)C"
quantity_kind = "pEC50"
value_observed = "> 9.00"

[[record]]
compound = "COC(=O)N[C@H](C(=O)N1CCCC1c1ncc(-c2ccc(-c3csc4c(-c5ccccc5)csc34)cc2)[nH]1)C(C)C (stereo partly shown)"
quantity_kind = "pEC50"
value_observed = "8.00 to 9.00"

[[record]]
compound = "COC(=O)N[C@H](C(=O)N1CCCC1c1nc(-c2ccc(-c3cc4sc(-c5ccc(-c6cnc([C@@H]7CCCN7C(=O)[C@@H](NC(=O)OC)C(C)C)[nH]6)cc5)cc4s3)cc2)c[nH]1)C(C)C (stereo partly shown)"
quantity_kind = "pEC50"
value_observed = "> 9.00"

[[record]]
compound = "COC(=O)N[C@H](C(=O)N1CCCC1c1ncc(-c2ccc(-c3csc4c(-c5cnc(C6CCCN6C(=O)[C@@H](NC(=O)OC(C)(C)C)C(C)C)[nH]5)csc34)cc2)[nH]1)C(C)C (stereo partly shown)"
quantity_kind = "pEC50"
value_observed = "> 9.00"

[[record]]
compound = "COC(=O)N[C@H](C(=O)N1CCC[C@H]1c1ncc(-c2ccc(-c3cn4cc(-c5cnc(C6CCCN6C(=O)[C@@H](NC(=O)OC(C)(C)C)c6ccccc6)[nH]5)nc4s3)cc2)[nH]1)C(C)C (stereo partly shown)"
quantity_kind = "pEC50"
value_observed = "> 9.00"

[[record]]
compound = "CC(C)(C)OC(=O)N[C@@H](C(=O)N1CCC[C@H]1C(=O)Nc1cn2cc(-c3ccccc3)sc2n1)c1ccccc1"
quantity_kind = "pEC50"
value_observed = "7.00 to 8.00"

[[record]]
compound = "COC(=O)N[C@H](C(=O)N1CCCC1c1ncc(-c2ccc(-c3cn4ccsc4n3)cc2)[nH]1)C(C)C (stereo partly shown)"
quantity_kind = "pEC50"
value_observed = "7.00 to 8.00"

